tested on: Aedes aegypti neuropeptide Y-like receptor 7 (NPYLR7); experiment: agonists of mosquito NPYLR7 receptor, primary screen, cell-based, Aedes aegypti, calcium fluorescence, mosquito biting behavior (AID 1259423); conditions: HEK293T NPYLR7/Galpha15, GCaMP6s calcium fluorescence; measured here: Max-Min RFU normalised activation; at 10 µM; stronger effect = higher value;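 also: 0% = vehicle and 100% = reference agonist at the receptor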
The whole screen tested about 270,000 compounds, of which about 410 (0.15%) were called active. This is one part of a sample in which actives are shown more often than they occur.
readout.name: activation (%)
Your answer is read as %, so omit the unit and give the number.

Incoming: Bench note: what activation did CC(c1cccs1)N(C)C(=O)c1n[nH]c(C2CC2)c1Br (centres undefined) show?
Outgoing: 0.622

Incoming: Bench note: what activation did `O=c1oc2c(Cl)cc(Cl)cc2cc1-c1nnc(Nc2ccccc2F)s1` show?
Outgoing: 1.58

Incoming: Bench note: what activation did `O=C1OCCN1Cc1nc(CCc2ccccc2)nn1-c1ccccn1` show?
Outgoing: -8.03

Incoming: Bench note: what activation did O=C(O)C1CC2CCCC(C1)C2=O (centres undefined) show?
Outgoing: 1.09

====

Field: activation. Provide a value for each of the compounds that follow.
tested on: Aedes aegypti neuropeptide Y-like receptor 7 (NPYLR7); assay: agonists of mosquito NPYLR7 receptor, primary screen, cell-based, Aedes aegypti, calcium fluorescence, mosquito biting behavior (AID 1259423); conditions: HEK293T NPYLR7/Galpha15, GCaMP6s calcium fluorescence; at 10 µM; stronger effect = higher value;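 also: 0% = vehicle and 100% = reference agonist at the receptor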
The whole screen tested about 270,000 compounds, of which about 410 (0.15%) were called active. The sample holds actives, similar compounds and a random draw of the others, so the mix is not that of the screen.
Your answer is read as %, so omit the unit and give the number.

Incoming: Bench note: what activation did `Cc1csc(N(C)C(=O)c2cc(N3CCNC3=O)ccc2F)n1` show?
Outgoing: -7.45

Incoming: Bench note: what activation did `O=C(NC1Cc2ccccc2C1)c1ccc(-c2cc(-c3cccc(C(F)(F)F)c3)n[nH]2)cc1` show?
Outgoing: 25.1

Incoming: Bench note: what activation did `Fc1ccc(-c2cnc(NCCc3ccccn3)cn2)cc1Cl` show?
Outgoing: -2.76

Incoming: Bench note: what activation did O=C(O)C1CC2CCCC(C1)C2=O (centres undefined) show?
Outgoing: 2.14

====

system: Aedes aegypti neuropeptide Y-like receptor 7 (NPYLR7); assay: agonists of mosquito NPYLR7 receptor, primary screen, cell-based, Aedes aegypti, calcium fluorescence, mosquito biting behavior (AID 1259423); conditions: HEK293T NPYLR7/Galpha15, GCaMP6s calcium fluorescence; at 10 µM; stronger effect = higher value;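 also: 0% = vehicle and 100% = reference agonist at the receptor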
The whole screen tested about 270,000 compounds, of which about 410 (0.15%) were called active. The entries come from a sample that favours actives as a whole.
Field: activation. Provide a value for each of the compounds that follow.
Your answer is read as %, so omit the unit and give the number.

Incoming: Bench note: what activation did O=C(O)c1[nH]ncc1CN1CCCC(c2[nH]ncc2Cc2ccccc2)C1 (centres undefined) show?
Outgoing: 2.78

Incoming: Bench note: what activation did `O=C(CCc1ccco1)N1CCc2onc(-c3ccc(C(F)(F)F)cc3)c2C1` show?
Outgoing: 3.67

Incoming: Bench note: what activation did CC1(C)SC2C(NC(=O)COc3ccccc3)C(=O)N2C1C(=O)O (centres undefined) show?
Outgoing: -1.02

Incoming: Bench note: what activation did `Cn1cc(NC(=O)Nc2cccc(N3CCCCCC3)c2)cn1` show?
Outgoing: 8.13
